I'd be grateful if you could share measured IC50 for these entries.
# SUBJECT_OF_TEST: KRAS G12C (Homo sapiens, UniProt P01116, G12C)
# Sequence (P01116 1-188 isoform P01116-2 G12C): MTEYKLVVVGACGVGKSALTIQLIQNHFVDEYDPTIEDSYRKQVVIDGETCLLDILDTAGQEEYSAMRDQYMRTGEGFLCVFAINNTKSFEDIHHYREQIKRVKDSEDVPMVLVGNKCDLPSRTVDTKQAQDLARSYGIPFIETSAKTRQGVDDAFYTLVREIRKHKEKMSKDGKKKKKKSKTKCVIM
# ASSAY_PROTOCOL: phospho-ERK HTRF assay in Ras Initiative (RI) KRAS G12C cells
# MEASUREMENT_PARAMETERS: phospho-ERK1/2 HTRF, 11-point dose response from 2,500 nM, treatment for either 4 hours or 16 hours, read-out: pERK (RI)

Solved entries (count: 3):
1) C=CC(=O)N1[C@H](C)CN(c2nc(=O)n3c4c(c(-c5ccc(F)cc5F)c(C(F)(F)F)cc24)SC[C@H](c2ccc(F)cc2)C3)C[C@@H]1C (atropisomer, axis not shown) [Example 118]; > 250 nM
2) C=CC(=O)N1[C@H](C)CN(c2nc(=O)n3c4c(c(-c5cc(Cl)c(F)cc5F)c(C(F)(F)F)cc24)SC[C@H](c2ccncc2F)C3)C[C@@H]1C [Example 111]; 20 to 250 nM
3) C=CC(=O)N1[C@H](C)CN(c2nc(=O)n3c4c(c(-c5ccc(F)cc5)c(C(F)(F)F)cc24)SC[C@@H](c2cncc(F)c2)C3)C[C@@H]1C [Example 126]; 0.5 to 2 nM

Could you report IC50 for every entry in the following list?
1. C=CC(=O)N1[C@H](C)CN(c2nc(=O)n3c4c(c(-c5cc(Cl)c(F)cc5F)c(C(F)(F)F)cc24)SC[C@@H](c2cccnc2)C3)C[C@@H]1C [Example 104B]
2. C=CC(=O)N1[C@H](C)CN(c2nc(=O)n3c4c(c(-c5cc(Cl)c(F)cc5F)c(C(F)(F)F)cc24)SC[C@@H](c2ccncc2F)C3)C[C@@H]1C (single isomer, unassigned) [Example 112B]

A:
["2 to 20 nM", "0.5 to 2 nM"]

====

# SUBJECT_OF_TEST: KRAS G12C (Homo sapiens, UniProt P01116, G12C)
# ASSAY_PROTOCOL: phospho-ERK HTRF assay in Ras Initiative (RI) KRAS G12C cells
# MEASUREMENT_PARAMETERS: phospho-ERK1/2 HTRF, 11-point dose response from 2,500 nM, treatment for either 4 hours or 16 hours, read-out: pERK (RI)
Kindly state IC50 for each of the entries shown.

1. C=CC(=O)N1[C@H](C)CN(c2nc(=O)n3c4c(c(-c5ccc(F)cc5)c(C(F)(F)F)cc24)SC[C@@H](c2cccs2)C3)C[C@@H]1C; 2 to 20 nM
2. C=CC(=O)N1[C@H](C)CN(c2nc(=O)n3c4c(c(-c5ccc(F)cc5)c(C(F)(F)F)cc24)SC[C@@H](c2ccncc2F)C3)C[C@@H]1C; 0.5 to 2 nM
3. C=CC(=O)N1[C@H](C)CN(c2nc(=O)n3c4c(c(-c5cc(Cl)c(F)cc5F)c(C(F)(F)F)cc24)SC[C@@H](c2ccncc2)C3)C[C@@H]1C (single isomer, unassigned) [Example 100A]; 2 to 20 nM
4. C=CC(=O)N1[C@H](C)CN(c2nc(=O)n3c4c(c(-c5cc(Br)c(F)cc5F)c(C(F)(F)F)cc24)SC[C@@H](c2cccnc2)C3)C[C@@H]1C (atropisomer, axis not shown) [Example 108A]; 0.5 to 2 nM

Please examine the following record next.
Q: So what IC50 did C=CC(=O)N1[C@H](C)CN(c2nc(=O)n3c4c(c(-c5cc(Br)c(F)cc5F)c(C(F)(F)F)cc24)SC[C@@H](c2ccccn2)C3)C[C@@H]1C (single isomer, unassigned) [Example 107B] get with KRAS G12C (Homo sapiens, UniProt P01116, G12C)?
A: 0.5 to 2 nM
